Entry source: patent EP2508526A1

# experimental.system: UniProt P41597
# Sequence (P41597 1-360 isoform P41597-2): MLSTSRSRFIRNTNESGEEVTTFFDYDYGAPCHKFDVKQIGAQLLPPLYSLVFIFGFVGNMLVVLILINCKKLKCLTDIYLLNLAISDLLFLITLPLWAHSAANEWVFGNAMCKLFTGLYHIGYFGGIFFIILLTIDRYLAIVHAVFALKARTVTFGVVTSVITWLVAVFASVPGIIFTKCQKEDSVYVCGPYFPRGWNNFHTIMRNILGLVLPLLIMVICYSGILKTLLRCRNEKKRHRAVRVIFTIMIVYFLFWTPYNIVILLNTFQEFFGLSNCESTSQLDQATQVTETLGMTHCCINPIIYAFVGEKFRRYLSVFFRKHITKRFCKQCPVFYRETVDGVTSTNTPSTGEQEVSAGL
# assay.notes: CCR2 binding assay ([125I]MCP-1, SPA, CHO cell membranes)
# Set-up: expressed in transfected cells; host or cells: CHO cells (membrane preparation)
# experimental.parameters: membranes from CHO cells expressing hCCR2b, 50 pM [125I]MCP-1; read-out: Binding hCCR2 (Ki)
Where a name gives a salt, the structure may show the parent alone.
Quick list: Ki per entry.

Worked cases, Ki given:
{"compound": "CC1=C(C(=O)N2CCN(c3cccc(C(F)(F)F)c3)CC2)C2(CCN(C3CCCOC3)CC2)OC1=O (centres unmarked) [Compound 23]", "experimental.system": "UniProt P41597", "Ki": "< 50 nM"}
{"compound": "CCN1CCC2(CC1)OC(=O)C(C)=C2C(=O)N1CCC(c2cccc(C(F)(F)F)c2)C1 (centres unmarked) [Compound 55]", "experimental.system": "UniProt P41597", "Ki": "100 to 500 nM"}
{"compound": "CC1=C(C(=O)N2CCc3ccc(C(F)(F)F)cc3C2)C2(CCN(CCF)CC2)OC1=O [Compound 17]", "experimental.system": "UniProt P41597", "Ki": "< 50 nM"}
{"compound": "COc1ccc(CCN2CCC3(CC2)OC(=O)C(C)=C3C(=O)N2CCN(c3cccc(C(F)(F)F)c3)CC2)cc1 [Example 6, dihydrochloride salt]", "experimental.system": "UniProt P41597", "Ki": "< 50 nM"}
{"compound": "CCN1CCC2(CC1)OC(=O)C(C)=C2C(=O)N1CCN(c2cccc(C(F)(F)F)c2)CC1C (centres unmarked) [Compound 84]", "experimental.system": "UniProt P41597", "Ki": "< 50 nM"}
{"compound": "CC1=C(C(=O)N2CCN(c3cccc(C(F)(F)F)c3)CC2)C2(CCN(C(C)C)CC2)OC1=O [Compound 101]", "experimental.system": "UniProt P41597", "Ki": "< 50 nM"}
{"compound": "CC1=C(C(=O)N2CCc3ccc(C(F)(F)F)cc3C2)C2(CCN(C3CCOC3)CC2)OC1=O (centres unmarked) [Compound 34]", "experimental.system": "UniProt P41597", "Ki": "< 50 nM"}

# evaluate next
Q: Which Ki is reported with UniProt P41597 for this entry: COC1COCCC1N1CCC2(CC1)OC(=O)C(C)=C2C(=O)N1CCc2ncc(C(F)(F)F)cc2C1 (single isomer, unassigned; (+)) [Compound 48] ?
A: 100 to 500 nM
